target: Large T antigen (Simian virus 40); test: SV40 large T antigen inhibitors, biochemical (AID 1903); details: SV40 large T antigen ATPase/helicase inhibition assay; at 20 µM; active compounds read high
Hit rate of the full screen: of about 310,000 compounds, about 1,200 (0.39%) were called active. Not all results are given here. Potency and affinity values are given separately.
propertyName: inhibition (%)

>  <smilesText>
Cc1cccc(C(=O)Nc2ccc(NC(=O)c3ccccc3)cc2)c1

>  <propertyName>
inhibition

>  <endpointValue>
2.43

$$$$
>  <smilesText>
O=C(O)c1cccc(Cn2c(Cl)c(/C=N/Nc3ccccc3)sc2=O)c1

>  <propertyName>
inhibition

>  <endpointValue>
29.6

$$$$
>  <smilesText>
Cc1cc(/C=C2\C(=N)N3N=C(CC(=O)N4CCOCC4)SC3=NC2=O)c(C)n1-c1ccccc1

>  <propertyName>
inhibition

>  <endpointValue>
11.9

$$$$

----------
molecular target: Large T antigen (Simian virus 40) (UniProt P03070); test: SV40 large T antigen inhibitors, biochemical (AID 1903); conditions: SV40 large T antigen ATPase/helicase inhibition assay; at 20 µM; active compounds read high
Sequence (P03070 whole entry, looked up): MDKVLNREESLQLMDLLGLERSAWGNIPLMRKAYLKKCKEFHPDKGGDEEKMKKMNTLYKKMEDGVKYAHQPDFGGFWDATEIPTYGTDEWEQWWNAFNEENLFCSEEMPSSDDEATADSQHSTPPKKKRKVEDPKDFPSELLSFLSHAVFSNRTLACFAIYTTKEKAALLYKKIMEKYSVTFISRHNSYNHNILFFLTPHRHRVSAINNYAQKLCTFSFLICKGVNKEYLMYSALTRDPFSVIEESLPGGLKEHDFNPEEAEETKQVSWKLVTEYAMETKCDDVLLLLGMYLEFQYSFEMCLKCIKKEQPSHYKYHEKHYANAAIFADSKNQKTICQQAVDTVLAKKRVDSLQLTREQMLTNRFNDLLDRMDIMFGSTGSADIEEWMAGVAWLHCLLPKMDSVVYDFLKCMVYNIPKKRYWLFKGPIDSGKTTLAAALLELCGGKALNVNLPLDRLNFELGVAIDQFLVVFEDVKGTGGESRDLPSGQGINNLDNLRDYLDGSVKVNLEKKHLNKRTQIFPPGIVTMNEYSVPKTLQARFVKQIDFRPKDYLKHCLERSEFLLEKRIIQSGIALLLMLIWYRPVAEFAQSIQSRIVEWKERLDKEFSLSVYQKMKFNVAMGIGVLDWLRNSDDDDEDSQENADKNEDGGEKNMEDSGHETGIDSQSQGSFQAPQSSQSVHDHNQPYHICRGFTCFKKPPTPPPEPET
The campaign covered roughly 310,000 compounds. About 1,200 (0.39%) were called active. Only a sample is shown. Entries with a potency or affinity are not part of this list.
Recorded inhibition values for a group of molecules are listed next.

>  <molecule>
CCN(C(=O)CN1CCN(c2ccccc2)CC1)c1c(N)n(Cc2ccccc2)c(=O)[nH]c1=O

>  <testedOn>
Large T antigen (Simian virus 40) (UniProt P03070)

>  <inhibition, %>
14.1

$$$$
>  <molecule>
O=C(CN1CCCC1)Nc1ccc(F)cc1

>  <testedOn>
Large T antigen (Simian virus 40) (UniProt P03070)

>  <inhibition, %>
-4.88

$$$$
>  <molecule>
CC(C)(C)c1cc(C(=O)N/N=C/c2ccc(F)cc2)n(-c2ccccc2)n1

>  <testedOn>
Large T antigen (Simian virus 40) (UniProt P03070)

>  <inhibition, %>
-0.35

$$$$
>  <molecule>
CCc1ccc2nc(N)sc2c1

>  <testedOn>
Large T antigen (Simian virus 40) (UniProt P03070)

>  <inhibition, %>
9.15

$$$$
>  <molecule>
CN(C)S(=O)(=O)c1cccc(N2C(=O)CC3(CCCCC3)CC2=O)c1

>  <testedOn>
Large T antigen (Simian virus 40) (UniProt P03070)

>  <inhibition, %>
7.26

$$$$
>  <molecule>
CN1CC(=O)N(CC(=O)Nc2ccc(N(C)C)cc2)c2ccccc2C1=O

>  <testedOn>
Large T antigen (Simian virus 40) (UniProt P03070)

>  <inhibition, %>
37.1

$$$$
>  <molecule>
CC(=O)Nc1nonc1-c1nc2ccccc2n1CCC(C)C

>  <testedOn>
Large T antigen (Simian virus 40) (UniProt P03070)

>  <inhibition, %>
-3.72

$$$$
>  <molecule>
COc1cccc(NCc2ccc([N+](=O)[O-])s2)c1

>  <testedOn>
Large T antigen (Simian virus 40) (UniProt P03070)

>  <inhibition, %>
20.9

$$$$
>  <molecule>
COc1ccc(/C=N/NC(=O)CNc2c(Br)cc(C)cc2Br)c(C(=O)O)c1OC

>  <testedOn>
Large T antigen (Simian virus 40) (UniProt P03070)

>  <inhibition, %>
-1.95

$$$$
>  <molecule>
Cc1ccc2cc3c(N)c4c(C)ccc(C)c4nc3nc2c1

>  <testedOn>
Large T antigen (Simian virus 40) (UniProt P03070)

>  <inhibition, %>
1.71

$$$$
>  <molecule>
Cc1ccc(S(=O)(=O)N2CCOC2CNC(=O)C(=O)NCCc2c[nH]c3ccccc23)cc1 (stereo not drawn)

>  <testedOn>
Large T antigen (Simian virus 40) (UniProt P03070)

>  <inhibition, %>
-3.07

$$$$
>  <molecule>
Nc1ccc2c(c1)C(=O)C(=O)c1ccccc1-2

>  <testedOn>
Large T antigen (Simian virus 40) (UniProt P03070)

>  <inhibition, %>
15.6

$$$$
>  <molecule>
Cc1ccc(NC(=O)CC2NCCNC2=O)cc1 (stereo not drawn)

>  <testedOn>
Large T antigen (Simian virus 40) (UniProt P03070)

>  <inhibition, %>
5.94

$$$$
>  <molecule>
COc1cccc(/C=C2/C(=O)NN(c3ccccc3)C2=O)c1

>  <testedOn>
Large T antigen (Simian virus 40) (UniProt P03070)

>  <inhibition, %>
26.6

$$$$
>  <molecule>
Cc1ccc(S(=O)(=O)c2nc(-c3ccccc3Cl)oc2N(C)C)cc1

>  <testedOn>
Large T antigen (Simian virus 40) (UniProt P03070)

>  <inhibition, %>
-3.31

$$$$
>  <molecule>
Nc1cccc2c3c(oc12)CCCC3

>  <testedOn>
Large T antigen (Simian virus 40) (UniProt P03070)

>  <inhibition, %>
4.56

$$$$
>  <molecule>
CC1(C)Cc2nc3n[nH]c(N)c3cc2CO1

>  <testedOn>
Large T antigen (Simian virus 40) (UniProt P03070)

>  <inhibition, %>
-1.93

$$$$
>  <molecule>
CCc1ccc(NC(=O)CC2NCCNC2=O)cc1 (stereo not drawn)

>  <testedOn>
Large T antigen (Simian virus 40) (UniProt P03070)

>  <inhibition, %>
8.15

$$$$
